Source: patent US10711007B2

STUDY TARGET: PRMT5/MEP50 complex (Homo sapiens (Human), UniProt O14744)
Sequence (O14744 whole entry): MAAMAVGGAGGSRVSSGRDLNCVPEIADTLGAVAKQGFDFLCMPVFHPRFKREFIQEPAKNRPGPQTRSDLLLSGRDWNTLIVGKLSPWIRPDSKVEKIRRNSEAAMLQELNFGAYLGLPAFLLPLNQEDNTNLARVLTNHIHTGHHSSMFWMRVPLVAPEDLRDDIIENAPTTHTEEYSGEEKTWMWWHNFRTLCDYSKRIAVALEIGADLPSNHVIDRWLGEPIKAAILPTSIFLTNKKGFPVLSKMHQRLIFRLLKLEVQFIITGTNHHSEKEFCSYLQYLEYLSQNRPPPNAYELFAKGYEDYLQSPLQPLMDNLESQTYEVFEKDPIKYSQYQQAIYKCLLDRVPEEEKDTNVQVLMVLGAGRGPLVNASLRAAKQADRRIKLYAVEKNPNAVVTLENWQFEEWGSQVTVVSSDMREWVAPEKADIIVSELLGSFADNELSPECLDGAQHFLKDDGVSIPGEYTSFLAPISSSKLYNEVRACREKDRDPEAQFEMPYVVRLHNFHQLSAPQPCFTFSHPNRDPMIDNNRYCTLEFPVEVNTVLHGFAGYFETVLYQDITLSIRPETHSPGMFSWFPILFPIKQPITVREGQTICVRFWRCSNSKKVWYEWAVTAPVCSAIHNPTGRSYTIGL
Sequence (Q9BQA1 whole entry partner): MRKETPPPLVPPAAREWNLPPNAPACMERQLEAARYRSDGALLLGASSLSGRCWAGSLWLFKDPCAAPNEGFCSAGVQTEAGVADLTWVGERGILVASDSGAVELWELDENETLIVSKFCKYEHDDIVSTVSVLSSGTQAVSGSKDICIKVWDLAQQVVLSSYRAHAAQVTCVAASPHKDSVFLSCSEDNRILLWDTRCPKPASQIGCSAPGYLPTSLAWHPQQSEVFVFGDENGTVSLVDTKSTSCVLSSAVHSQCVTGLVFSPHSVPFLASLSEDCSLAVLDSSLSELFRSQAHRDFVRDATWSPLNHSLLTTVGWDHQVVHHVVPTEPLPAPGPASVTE
PROCEDURE TEXT: Biochemical assay: PRMT5/MEP50 methylation of histone H4 based AcH4-23, SPA readout
STUDY CONDITIONS: PRMT5/MEP50 2.5 nM, 300 nM AcH4-23, 1 μM 3H-SAM
Where a name gives a salt, the structure may show the parent alone.
Reported IC50 values for the following compounds.
The response must be a number in nM with no trailing unit.

[
  {
    "COMPOUND": "Nc1ncnc2c1ccn2[C@@H]1O[C@H]([C@@H]2OCCc3cc(Cl)ccc32)[C@@H](O)[C@H]1O",
    "STUDY TARGET": "PRMT5/MEP50 complex (Homo sapiens (Human), UniProt O14744)",
    "OBSERVED PROPERTY": "IC50",
    "RESULT UNITS": "nM",
    "OBSERVED VALUE": 1.2
  }
]

Ask | Give its IC50 value. Item: COC1Cc2cc(Cl)ccc2[C@H]([C@H]2O[C@@H](n3ccc4c(N)ncnc43)[C@H](O)[C@@H]2O)O1 (stereo partly drawn)
Reply | 428

Ask | Give its IC50 value. Item: "Nc1ncnc2c1ccn2[C@@H]1O[C@H]([C@@H]2OCCc3cc(F)c(F)cc32)[C@@H](O)[C@H]1O"
Reply | 1.45

Ask | Give its IC50 value. Item: "Cc1ncnc2c1ccn2[C@@H]1O[C@H]([C@@H]2OCCc3cc(Cl)sc32)[C@@H](O)[C@H]1O"
Reply | 15.7

Ask | Give its IC50 value. Item: Nc1ncnc2c1ccn2[C@@H]1O[C@H]([C@@H]2OCCCc3cc(Cl)ccc32)[C@@H](O)[C@H]1O [Example 102, hydrochloride]
Reply | 6280

Ask | Give its IC50 value. Item: "Cc1ncnc2c1ccn2[C@@H]1O[C@H]([C@@H]2NCCc3cc(Cl)ccc32)[C@@H](O)[C@H]1O"
Reply | 11.9

----------
STUDY TARGET: PRMT5/MEP50 complex (Homo sapiens (Human), UniProt O14744)
PROCEDURE TEXT: Biochemical assay: PRMT5/MEP50 methylation of histone H4 based AcH4-23, SPA readout
STUDY CONDITIONS: PRMT5/MEP50 2.5 nM, 300 nM AcH4-23, 1 μM 3H-SAM
Reported IC50 values for the following molecules.
The response must be a number in nM with no trailing unit.

[
  {
    "RECORD SMILES": "Cc1ncnc2c1ccn2[C@@H]1O[C@H]([C@@H]2OCCc3c2ccc(F)c3F)[C@@H](O)[C@H]1O",
    "OBSERVED PROPERTY": "IC50",
    "OBSERVED VALUE": 8.4
  },
  {
    "RECORD SMILES": "Cc1ncnc2c1ccn2[C@@H]1O[C@H]([C@@H]2OCCc3c(Cl)cccc32)[C@@H](O)[C@H]1O",
    "OBSERVED PROPERTY": "IC50",
    "OBSERVED VALUE": 15.1
  },
  {
    "RECORD SMILES": "Cc1cc2c(cc1Cl)CCO[C@H]2[C@H]1O[C@@H](n2ccc3c(C)ncnc32)[C@H](O)[C@@H]1O",
    "OBSERVED PROPERTY": "IC50",
    "OBSERVED VALUE": 39.6
  },
  {
    "RECORD SMILES": "Nc1ncnc2c1ccn2[C@@H]1O[C@H]([C@@H]2OCCc3ccc(Cl)cc32)[C@@H](O)[C@H]1O",
    "OBSERVED PROPERTY": "IC50",
    "OBSERVED VALUE": 6.2
  },
  {
    "RECORD SMILES": "Cc1ncnc2c1ccn2[C@@H]1O[C@H]([C@@H]2OC[C@H](F)c3cc(Cl)ccc32)[C@@H](O)[C@H]1O",
    "OBSERVED PROPERTY": "IC50",
    "OBSERVED VALUE": 3.2
  },
  {
    "RECORD SMILES": "Nc1ncnc2c1ccn2[C@@H]1O[C@H]([C@@H]2OCCc3c2ccc(F)c3F)[C@@H](O)[C@H]1O",
    "OBSERVED PROPERTY": "IC50",
    "OBSERVED VALUE": 2.82
  },
  {
    "RECORD SMILES": "Cc1ncnc2c1ccn2[C@@H]1O[C@H]([C@@H]2OCc3ccc(Cl)cc32)[C@@H](O)[C@H]1O",
    "OBSERVED PROPERTY": "IC50",
    "OBSERVED VALUE": 1
  },
  {
    "RECORD SMILES": "Nc1ncnc2c1ccn2[C@@H]1O[C@H]([C@@H]2OCc3ccc(Cl)cc32)[C@@H](O)[C@H]1O",
    "OBSERVED PROPERTY": "IC50",
    "OBSERVED VALUE": 1
  },
  {
    "RECORD SMILES": "Nc1ncnc2c1ccn2[C@@H]1C[C@H]([C@H]2OCc3cc(Cl)ccc32)[C@@H](O)[C@H]1O",
    "OBSERVED PROPERTY": "IC50",
    "OBSERVED VALUE": 680
  },
  {
    "RECORD SMILES": "Cc1ncnc2c1c(F)cn2[C@@H]1O[C@H]([C@@H]2OCCc3cc(Cl)ccc32)[C@@H](O)[C@H]1O",
    "OBSERVED PROPERTY": "IC50",
    "OBSERVED VALUE": 14.7
  }
]

Ask | Give its IC50 value. Item: "Cc1ncnc2c1ccn2[C@@H]1O[C@H]([C@@H]2OCCCc3cc(Cl)ccc32)[C@@H](O)[C@H]1O"
Reply | 1580

Ask | Give its IC50 value. Item: "Cc1ncnc2c1ccn2[C@@H]1O[C@H]([C@@H]2OCOCc3cc(Cl)ccc32)[C@@H](O)[C@H]1O"
Reply | 11.7

Ask | Give its IC50 value. Item: "Nc1ncnc2c1ccn2[C@@H]1O[C@H]([C@@H]2OCC(F)(F)c3ccccc32)[C@@H](O)[C@H]1O"
Reply | 6.7

Ask | Give its IC50 value. Item: "Nc1ncnc2c1ccn2[C@@H]1C[C@H]([C@@H]2OC(=O)c3cc(Cl)ccc32)[C@@H](O)[C@H]1O"
Reply | 21

Ask | Give its IC50 value. Item: "Nc1ncnc2c1ccn2[C@@H]1O[C@H]([C@@H]2OCCc3cc(Cl)sc32)[C@@H](O)[C@H]1O"
Reply | 2.2

----------
Reported IC50 values for the following compounds.
STUDY TARGET: PRMT5/MEP50 complex (Homo sapiens (Human))
PROCEDURE TEXT: Biochemical assay: PRMT5/MEP50 methylation of histone H4 based AcH4-23, SPA readout
STUDY CONDITIONS: PRMT5/MEP50 2.5 nM, 300 nM AcH4-23, 1 μM 3H-SAM
The response must be a number in nM with no trailing unit.

[
  {
    "RECORD SMILES": "Cc1ncnc2c1ccn2[C@@H]1O[C@H]([C@@H]2OCCc3cc(Cl)c(Cl)cc32)[C@@H](O)[C@H]1O",
    "STUDY TARGET": "PRMT5/MEP50 complex (Homo sapiens (Human))",
    "OBSERVED PROPERTY": "IC50",
    "OBSERVED VALUE": 7.7
  }
]

Ask | Give its IC50 value. Item: "Nc1ncnc2c1ccn2[C@@H]1O[C@H]([C@@H]2OC[C@@H](F)c3cc(Cl)ccc32)[C@@H](O)[C@H]1O"
Reply | 14

Ask | Give its IC50 value. Item: "Cc1ncnc2c1ccn2[C@@H]1O[C@H]([C@@H]2OCCc3cc(F)c(F)cc32)[C@@H](O)[C@H]1O"
Reply | 7.28

Ask | Give its IC50 value. Item: "Cc1ncnc2c1ccn2[C@@H]1O[C@H]([C@@H]2OCCc3c2ccc(Cl)c3F)[C@@H](O)[C@H]1O"
Reply | 13.2

Ask | Give its IC50 value. Item: "CNc1ncnc2c1ccn2[C@@H]1O[C@H]([C@@H]2OCCc3cc(Cl)ccc32)[C@@H](O)[C@H]1O"
Reply | 14.9
